experiment: Potentiometric titrations, protonation constants; format: physicochemical; settings: 0.15 M NaCl, 298.1 K
The entries below come with measured Logarithm of the protonation constant H+L ⇌ HL values attached.

The following compounds have reported results that may help.
> print(dat)
                                   compound  assayresult
1  CNCCNCc1ccccn1 [Compound 1, 1-{2-pyridyl}-2,5-diazahexane]   9.63(1) ^b
2  CN(C)CCNCc1ccccn1 [Compound 4, 1-(2-pyridyl)-5-methyl-2,5-diazahexane]   9.06(1) ^b
3  CNCCNCc1ccc2ccccc2n1 [Compound 9, 1-{2-quinolyl)-2,5-diazahexane]      9.68(2)
4  CNCCNCc1ccncc1 [Compound 3, 1-{4-pyridyl)-2,5-diazahexane]     9.503(5)
5      CN(C)CCNCc1ccc2ccccc2n1 [Compound 7]      9.17(1)

q: Name the reported Logarithm of the protonation constant H+L ⇌ HL value associated with the compound CNCCNCc1cccnc1 [Compound 2, 1-{3-pyridyl)-2,5-diazahexane]
a: 9.653(5)

q: Name the reported Logarithm of the protonation constant H+L ⇌ HL value associated with the compound CN(C)CCNCc1cccnc1 [Compound 5, 1-{3-pyridyl}-5-methyl-2,5-diazahexane]
a: 9.18(1)

###

The entries below come with measured pIC50 values attached.
system: L. infantum promastigote forms; assay: In vitro activity against extracellular (promastigote) forms; assay type: cell-based, Leishmania infantum; conditions: Leishmania infantum, 72 h
Recall that pIC50 is obtained by taking minus log10 of the concentration measured in molar.

q: Name the reported pIC50 value associated with the molecule CN(C)CCNCc1ccccn1 [Compound 4, 1-(2-pyridyl)-5-methyl-2,5-diazahexane]
a: 4.54

q: Name the reported pIC50 value associated with the molecule CN(C)CCNCc1ccncc1 [Compound 6]
a: 4.20

q: Name the reported pIC50 value associated with the molecule CN(C)CCNCc1cccnc1 [Compound 5, 1-{3-pyridyl}-5-methyl-2,5-diazahexane]
a: 5.04

q: Name the reported pIC50 value associated with the molecule CNCCNCc1ccccn1 [Compound 1, 1-{2-pyridyl}-2,5-diazahexane]
a: 6.22

###

The entries below come with measured IC50 values attached.
system: L. donovani amastigote forms; assay: In vitro activity against intracellular (amastigote) forms in macrophages; type: cell-based, Leishmania donovani; details: Leishmania donovani, Macrophage, 72 h
Please give the number followed by its unit.

The following molecules have reported results that may help.
> print(dat)
            smilesnotation  assaymetric  assayresult
1           CNCCNCc1ccccn1         IC50       8.9 µM
2           CNCCNCc1ccncc1         IC50       5.1 µM
3        CN(C)CCNCc1cccnc1         IC50      17.6 µM
4     CNCCNCc1ccnc2ccccc12         IC50      26.8 µM
5  CN(C)CCNCc1ccc2ccccc2n1         IC50      38.9 µM

q: Name the reported IC50 value associated with the molecule CN(C)CCNCc1ccccn1
a: 38.8 µM

q: Name the reported IC50 value associated with the molecule CN(C)CCNCc1ccnc2ccccc12
a: 10.6 µM

q: Name the reported IC50 value associated with the molecule CNCCNCc1cccnc1
a: 14.4 µM

q: Name the reported IC50 value associated with the molecule CNCCNCc1ccc2ccccc2n1
a: 31.9 µM

q: Name the reported IC50 value associated with the molecule CN(C)CCNCc1ccncc1
a: 11.5 µM

###

system: L. donovani amastigote forms; assay: In vitro activity against intracellular (amastigote) forms in macrophages; assay type: cell-based, Leishmania donovani; conditions: IC50 of macrophages / IC50 of parasite form
# if measured Selectivity Index (SI) L. donvovani Amastigote forms < 10: Met  # else: Not met

Solved entries (count: 2):
> print(dat)
            smilesnotation  classlabel
1     CNCCNCc1ccc2ccccc2n1     Not met
2  CN(C)CCNCc1ccc2ccccc2n1     Not met

q: Take the compound CNCCNCc1cccnc1 and say whether its Selectivity Index (SI) L. donvovani Amastigote forms is less than 10.
a: Not met

q: Take the compound CN(C)CCNCc1ccccn1 and say whether its Selectivity Index (SI) L. donvovani Amastigote forms is less than 10.
a: Not met

q: Take the compound CNCCNCc1ccnc2ccccc12 and say whether its Selectivity Index (SI) L. donvovani Amastigote forms is less than 10.
a: Met

q: Take the compound CN(C)CCNCc1cccnc1 and say whether its Selectivity Index (SI) L. donvovani Amastigote forms is less than 10.
a: Not met

q: Take the compound CN(C)CCNCc1ccnc2ccccc12 and say whether its Selectivity Index (SI) L. donvovani Amastigote forms is less than 10.
a: Met

q: Take the compound CNCCNCc1ccccn1 and say whether its Selectivity Index (SI) L. donvovani Amastigote forms is less than 10.
a: Met

###

tested on: L. infantum amastigote forms; assay: In vitro activity against intracellular (amastigote) forms in macrophages; format: cell-based, Leishmania infantum; conditions: IC50 of macrophages / IC50 of parasite form
The entries below come with measured Selectivity Index (SI) L. infantum Amastigote forms values attached.
Hey, just send me the number, nothing else.

The following compounds have reported results that may help.
> print(dat)
            smilesnotation  assayresult
1           CNCCNCc1ccccn1           20
2     CNCCNCc1ccnc2ccccc12            9
3  CN(C)CCNCc1ccnc2ccccc12            2
4        CN(C)CCNCc1ccccn1           37
5           CNCCNCc1ccncc1           16
6     CNCCNCc1ccc2ccccc2n1           25
7        CN(C)CCNCc1ccncc1           21

q: Name the reported Selectivity Index (SI) L. infantum Amastigote forms value associated with the compound CN(C)CCNCc1ccc2ccccc2n1
a: 9

###

tested on: J774.2 macrophages; assay: Macrophage toxicity by flow cytometry; type: cell-based; details: J774.2 macrophages, 72 h of culture
pIC50: −log10 of the molar value.
Is pIC50 at least 4? Then yes (1). If not, no (0).

> print(dat)
            smilesnotation  classlabel
1     CNCCNCc1ccc2ccccc2n1      no (0)
2  CN(C)CCNCc1ccnc2ccccc12     yes (1)
3        CN(C)CCNCc1ccncc1      no (0)
4           CNCCNCc1ccccn1     yes (1)
5           CNCCNCc1ccncc1      no (0)

q: Item CN(C)CCNCc1cccnc1 with pIC50 of 4 or above?
a: no (0)

q: Item CNCCNCc1ccnc2ccccc12 with pIC50 of 4 or above?
a: no (0)

###

experiment: Potentiometric titrations, protonation constants; assay type: physicochemical; settings: 0.15 M NaCl, 298.1 K
The entries below come with measured Log β values attached.

The following molecules have reported results that may help.
> print(dat)
            smilesnotation  assayresult
1     CNCCNCc1ccc2ccccc2n1     15.10(3)
2  CN(C)CCNCc1ccc2ccccc2n1    14.63 (1)
3        CN(C)CCNCc1cccnc1     17.98(1)

q: Name the reported Log β value associated with the molecule CNCCNCc1ccnc2ccccc12
a: 17.99(1)

q: Name the reported Log β value associated with the molecule CNCCNCc1ccccn1
a: 15.25(1)

q: Name the reported Log β value associated with the molecule CN(C)CCNCc1ccncc1
a: 17.22 (1)

###

assay: Potentiometric titrations, protonation constants; format: physicochemical; settings: 0.15 M NaCl, 298.1 K
The entries below come with measured Logarithm of the protonation constant HL+H ⇌ H2L values attached.

> print(dat)
            smilesnotation  assayresult
1           CNCCNCc1cccnc1     5.687(5)
2        CN(C)CCNCc1ccncc1     5.407(3)
3  CN(C)CCNCc1ccc2ccccc2n1      5.45(1)
4           CNCCNCc1ccncc1     5.713(5)
5  CN(C)CCNCc1ccnc2ccccc12      5.59(1)
6     CNCCNCc1ccnc2ccccc12     5.297(7)
7        CN(C)CCNCc1ccccn1      5.58(1)
8     CNCCNCc1ccc2ccccc2n1      5.41(2)
9           CNCCNCc1ccccn1      5.62(1)

Turning now to a further record.
q: Name the reported Logarithm of the protonation constant HL+H ⇌ H2L value associated with the compound CN(C)CCNCc1cccnc1
a: 5.63(1)

###

assay: Potentiometric titrations, protonation constants; format: physicochemical; details: 0.15 M NaCl, 298.1 K
The entries below come with measured Log β values attached.

The following compounds have reported results that may help.
> print(dat)
            smilesnotation  assaymetric  assayresult
1  CN(C)CCNCc1ccnc2ccccc12        Log β     18.99(2)
2           CNCCNCc1ccncc1        Log β     18.60(1)
3        CN(C)CCNCc1ccccn1        Log β     16.88(2)

Turning now to a further record.
q: Name the reported Log β value associated with the compound CNCCNCc1cccnc1
a: 18.29(3)
